- assayed target: cross-linked CA 4Mu hexamer (HIV-1 (NL4-3 strain))
- protocol summary: SPR; Biacore T100; minimally biotinylated WT CA or CA 4Mu hexamer captured on neutravidin on CM5 chips, CAI injected (100 µM and 3-fold dilutions); 50 mM sodium phosphate pH 7.5, 150 mM NaCl, 0.01% P20; steady-state one-site fit
quantity: Kd

Req: # query: Kd of entry ITFEDLLDYYGP [CAI peptide]
Resp: > 100 µM
